species: Homo sapiens; assay: Selectivity index, ratio of Ki for recombinant human carbonic anhydrase 1 preincubated with enzyme for 15 mins by phenol red dye based stopped flow CO2 hydration assay to Ki for recombinant human carbonic anhydrase 12 preincubated with enzyme for 15 mins by phenol red dye based stopped flow CO2 hydration assay
Measurement Kind: Ratio Ki
One number for each entry.

Example entries begin here.
Compound String: Cc1c(NC(=O)Nc2ccc(C(=O)O)cc2)oc2ccccc12
Ratio Ki: 5
--
Compound String: Cc1c(NC(=O)Nc2ccc(C(=O)NCC(=O)O)cc2)oc2ccccc12
Ratio Ki: 24
--
Compound String: O=C(O)CNC(=O)c1ccc(NC(=O)Nc2cc3cc(Br)ccc3o2)cc1
Ratio Ki: 10

Shifting focus to the molecule that follows.
## Input Let me know recorded Ratio Ki for O=C(Nc1cc2cc(Br)ccc2o1)Nc1ccccc1C(=O)O , thanks.
## Output 13

---

Would you mind telling me the reported Ki of each entry?
biological target: UniProt O43570; assay: Inhibition of recombinant human carbonic anhydrase 12 preincubated with enzyme for 15 mins by phenol red dye based stopped flow CO2 hydration assay
Sequence (O43570 whole entry): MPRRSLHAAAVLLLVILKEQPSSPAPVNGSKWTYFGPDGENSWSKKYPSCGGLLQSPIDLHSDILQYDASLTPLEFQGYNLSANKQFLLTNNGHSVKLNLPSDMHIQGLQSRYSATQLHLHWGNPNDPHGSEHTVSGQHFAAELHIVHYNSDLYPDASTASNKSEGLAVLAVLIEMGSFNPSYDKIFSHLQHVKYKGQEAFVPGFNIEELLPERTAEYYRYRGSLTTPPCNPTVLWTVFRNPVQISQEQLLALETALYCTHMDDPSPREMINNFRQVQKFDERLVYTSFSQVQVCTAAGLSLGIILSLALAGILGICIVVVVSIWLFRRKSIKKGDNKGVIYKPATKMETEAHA
Give bare numbers, in µM.

Batch request: Ki per item, same order as input.
1. Cc1c(NC(=O)Nc2ccc(C(=O)O)cc2)oc2ccccc12
2. Cc1c(NC(=O)Nc2ccccc2C(=O)O)oc2ccccc12

## Output
0.88
3.4

## Input Let me know recorded Ki for Cc1c(NC(=O)Nc2ccc(C(=O)NCC(=O)O)cc2)oc2ccccc12 , thanks.
## Output 2.7

---

biological target: Carbonic anhydrase 1 (Homo sapiens, UniProt P00915); assay: Inhibition of recombinant human carbonic anhydrase 1 preincubated with enzyme for 15 mins by phenol red dye based stopped flow CO2 hydration assay
Sequence (P00915 whole entry): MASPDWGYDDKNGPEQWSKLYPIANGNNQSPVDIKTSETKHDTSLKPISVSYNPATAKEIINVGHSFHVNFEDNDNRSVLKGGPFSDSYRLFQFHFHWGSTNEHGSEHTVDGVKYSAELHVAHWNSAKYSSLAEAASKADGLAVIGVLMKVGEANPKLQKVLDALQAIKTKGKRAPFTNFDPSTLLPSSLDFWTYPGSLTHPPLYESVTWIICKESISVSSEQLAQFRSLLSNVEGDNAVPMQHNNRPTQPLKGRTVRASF
Would you mind telling me the reported Ki of each entry?

Example entries begin here.
Compound String: Cc1c(NC(=O)Nc2ccccc2C(=O)O)oc2ccccc12
Ki: > 100 µM
//
Compound String: O=C(Nc1cc2cc(Br)ccc2o1)Nc1ccccc1C(=O)O
Ki: > 100 µM

## Input Let me know recorded Ki for O=C(O)CNC(=O)c1ccc(NC(=O)Nc2cc3cc(Br)ccc3o2)cc1 , thanks.
## Output > 100 µM

Measured values drawn from ChEMBL document CHEMBL4613318 for this set.
